Consider the following molecules and their measured TGI readings.
# Tested on: LOX IMVI melanoma
# test.details: NCI tumour cell line growth inhibition, 48 h

INSERT INTO measurements (molecule, experimental_readout, measured_value) VALUES
  ('COc1cccc(C2NC(=S)NC(C)=C2C(=O)Nc2ccc(Cl)c(Cl)c2)c1 (stereo not given)', 'TGI', '15.1 µM');

Req: Request the reported TGI associated with CC(C)(C)C1CC[C@H](O)[C@H]([C@H](O)CC2CC(=O)N(c3ccccc3)C(=O)C2)C1 (stereo not given in full)
Resp: > 100 µM

Req: Request the reported TGI associated with CC(=O)Oc1ccc(/C=N/NC(N)=S)nc1
Resp: > 100 µM

Req: Request the reported TGI associated with NC1=NCC(CN2CCCC2)O1 (stereo not given)
Resp: > 100 µM

Req: Request the reported TGI associated with COC(=O)[C@@H]1CN(C(=O)c2ccccc2)C(=O)N1C(=O)OCc1ccccc1
Resp: > 100 µM

Req: Request the reported TGI associated with COC(=O)C1=C(O)C(C(=O)OC)[C@]2(O)[C@H](C(=O)OC)[C@H]1C[C@@H](c1ccc([N+](=O)[O-])cc1)[C@H]2C(=O)OC (stereo not given in full)
Resp: 32 µM

* * *

Consider the following molecules and their measured TGI readings.
# Tested on: OVCAR-5 ovarian
# test.details: NCI tumour cell line growth inhibition, 48 h

// solved cases for TGI follow
INSERT INTO results (molecule, measured_value) VALUES
  ('O=c1cc(-c2ccccn2)[nH]c2ccc(Cl)cc12', '> 100 µM'),
  ('C[C@@H]1C[C@]2(C[C@@H](C)C3[C@@H](CC4(C)[C@@H]5CCC6C(C)(C)OC(=O)C=C[C@]67C[C@@]5(CC[C@]34C)OO7)O2)OC1=O (stereo partly specified)', '> 100 µM'),
  ('CC(C)C1(O)C(=O)N(c2c(F)c(F)c(F)c(F)c2F)C(=S)N1CCSc1ccccc1 (stereo unspecified)', '33 µM'),
  ('CN(C=O)/C=C/c1cc(O)ccc1O', '63.9 µM'),
  ('COc1ccc2nc3ccccc3c(NCCCCN(C)CCCl)c2c1', '1.08 µM');

Req: TGI of O=C(c1ccco1)N(C(=S)OC12CC3CC(CC(C3)C1)C2)c1ccccc1 on OVCAR-5 ovarian?
Resp: > 100 µM

Req: TGI of CCN(CC)c1ccc2cc(-c3nc4ccccc4c(=O)[nH]3)c(=N)oc2c1 on OVCAR-5 ovarian?
Resp: > 100 µM

Req: TGI of COc1ccccc1NC(=O)C(CC(C(=O)Nc1ccccc1OC)/C(C)=N/Nc1ccc([N+](=O)[O-])cc1[N+](=O)[O-])/C(C)=N/Nc1ccc([N+](=O)[O-])cc1[N+](=O)[O-] (stereo unspecified) on OVCAR-5 ovarian?
Resp: > 100 µM

Req: TGI of NCCC1CN(C(=O)OCc2ccccc2)c2ccccc21 (stereo unspecified) on OVCAR-5 ovarian?
Resp: 45.4 µM

Req: TGI of O=c1[nH]c2ccccc2n1-c1n[nH]c2ccccc12 on OVCAR-5 ovarian?
Resp: > 100 µM

Req: TGI of CCOc1ccc(C(CN2CCOCC2)C(C)=O)cc1OC (stereo unspecified) on OVCAR-5 ovarian?
Resp: 33.2 µM

Req: TGI of CC(NC(=O)c1ccccc1)(C(=O)O)C(=O)O on OVCAR-5 ovarian?
Resp: > 100 µM

Req: TGI of S=C(NCc1ccccc1)N/N=C/c1ccccn1 on OVCAR-5 ovarian?
Resp: > 100 µM

* * *

Consider the following molecules and their measured TGI readings.
# System: RXF 393 renal
# test.details: NCI tumour cell line growth inhibition, 48 h
The figure you give is taken to be in µM; do not add the unit.

// solved cases for TGI follow
INSERT INTO measurements (molecule, experimental_readout, measured_value) VALUES
  ('COc1ccc(-c2cc(C(O)C3CCCCN3)c3ccccc3n2)cc1 (stereo not given)', 'TGI', 11.3),
  ('CCOC(=O)[C@H]1Nc2ccccc2C2c3ccccc3CC21 (stereo not given in full)', 'TGI', 31.1),
  ('Cc1ccc(S(=O)(=O)n2cc(C#N)c(C#N)c2)cc1', 'TGI', 94.3);

Req: Request the reported TGI associated with O=C(CC1Sc2ccccc2NC1=O)Nc1ccc(Cl)cc1 (stereo not given)
Resp: 67.2

Req: Request the reported TGI associated with C=[CH][Sn]([CH]=C)([O]c1cccc2cccnc12)[O]c1cccc2cccnc12
Resp: 1.21

Req: Request the reported TGI associated with Cc1nc(-n2nc(-c3ccccc3)cc2-c2ccccc2)sc1C(/C=C/c1ccc([N+](=O)[O-])cc1)=N/NC(=O)c1ccncc1
Resp: 76.6

* * *

# System: LOX IMVI melanoma
Valid outcomes are listed here; reply with one: Y for active, N for inactive

INSERT INTO results (molecule, label_value) VALUES
  ('CCOc1cc(-c2ccc[nH]2)[nH]c1/C=C1\N=C(C)C(C(=O)OC)=C1C', 'Y'),
  ('Nc1ccc2c(c1)c(N)nn2C(=O)Nc1ccc(Cc2ccccc2)cc1', 'N'),
  ('CC1=C(C(=O)Nc2ccc(Cl)c(Cl)c2)C(c2ccccc2O)NC(=O)N1 (configuration not stated)', 'N'),
  ('OCNCCNc1nc2ccccc2c2[nH]c3ccccc3c12', 'N'),
  ('Nc1ccc(S(=O)(=O)Nc2cnc3c(Cl)cccc3n2)cc1', 'N'),
  ('CC/C=C\C/C=C\C[C@H](O)C/C=C1/C(=O)C=C[C@@H]1C/C=C\CCCC(=O)OC', 'Y');

# evaluate next
Req: # outcome recorded in this test, key = O=C(NCCCCCCCNC(=O)OCc1ccc2c(Cl)cc(Cl)c(O)c2n1)OCc1ccc2c(Cl)cc(Cl)c(O)c2n1
Resp: Y

* * *

# OVCAR-5 ovarian: GI50 values follow

INSERT INTO results (molecule, experimental_readout, measured_value) VALUES
  ('CSC1=NCC2(S1)c1ccccc1N(C(=O)OC(C)(C)C)C2N1CCCCC1 (stereo not given)', 'GI50', '> 100 µM'),
  ('Oc1[nH]c2cc(Cl)ccc2c1/C=c1/ccc2c(c1)N=C(c1cc(F)cc(F)c1)N=2', 'GI50', '6.34 µM'),
  ('Nc1ccc2c(c1)c(N)nn2C(=O)Nc1ccc(Cc2ccccc2)cc1', 'GI50', '22.6 µM'),
  ('O=C1C=CC(=O)c2c(O)c(N3CCN(CCOCCO)CC3)c(Cl)c(O)c21', 'GI50', '1.26 µM');

// below: GI50 requested for another molecule
Req: Request the reported GI50 associated with O=C(NCCCCCCCNC(=O)OCc1ccc2c(Cl)cc(Cl)c(O)c2n1)OCc1ccc2c(Cl)cc(Cl)c(O)c2n1
Resp: 1.69 µM

* * *

# SF-539 CNS: GI50 values follow

Req: GI50 of CC/C=C\C/C=C\C[C@H](O)C/C=C1/C(=O)C=C[C@@H]1C/C=C\CCCC(=O)OC on SF-539 CNS?
Resp: 2530 nM

Req: GI50 of COc1cc([N+](=O)[O-])c2ncccc2c1[N+](=O)[O-] on SF-539 CNS?
Resp: 3610 nM

Req: GI50 of COc1cc(NC(=O)Nc2cnc(Nc3ccc(N4CCOCC4)cc3)nc2Oc2cccc(OC)c2)cc(OC)c1 on SF-539 CNS?
Resp: 884 nM

Req: GI50 of CN1CCN(c2nc(-c3ccncc3)nc3sc4c(c23)CCCCCC4)CC1 on SF-539 CNS?
Resp: 8320 nM

Req: GI50 of CC1(C)CC[C@]2(C(N)=O)CC[C@]3(C)C(=CC[C@@H]4[C@@]5(C)C/C(=C/c6ccncc6)C(=O)C(C)(C)[C@@H]5CC[C@]43C)[C@@H]2C1 on SF-539 CNS?
Resp: 1810 nM

Req: GI50 of CCC(CC(C)C)Nc1ccc(NC(CC)CC(C)C)cc1 (centres undefined) on SF-539 CNS?
Resp: 17100 nM

Req: GI50 of C=[CH][Sn]([CH]=C)([O]c1cccc2cccnc12)[O]c1cccc2cccnc12 on SF-539 CNS?
Resp: 2850 nM

Req: GI50 of Oc1[nH]c2cc(Cl)ccc2c1/C=c1/ccc2c(c1)N=C(c1cc(F)cc(F)c1)N=2 on SF-539 CNS?
Resp: 2040 nM

Req: GI50 of Nc1[nH]c(=O)ncc1CO on SF-539 CNS?
Resp: > 100000 nM

* * *

# Tested on: SN12C renal
Valid outcomes are listed here; reply with one: t for active, f for inactive

Answered examples (6):
INSERT INTO results (molecule, label_value) VALUES
  ('O=C(Nc1cccc(-n2cc(-c3ccncc3)c(-c3ccc(O)c(Cl)c3)n2)c1)c1cccc(C(F)(F)F)c1', 'f'),
  ('Nc1ccc(S(=O)(=O)Nc2cnc3c(Cl)cccc3n2)cc1', 'f'),
  ('C=[CH][Sn]([CH]=C)([O]c1cccc2cccnc12)[O]c1cccc2cccnc12', 'f'),
  ('CC1(C)CC[C@]2(C(N)=O)CC[C@]3(C)C(=CC[C@@H]4[C@@]5(C)C/C(=C/c6ccncc6)C(=O)C(C)(C)[C@@H]5CC[C@]43C)[C@@H]2C1', 'f'),
  ('CC1=C(C(=O)Nc2ccc(Cl)c(Cl)c2)C(c2ccccc2O)NC(=O)N1 (stereo not given)', 'f'),
  ('CCC(CC(C)C)Nc1ccc(NC(CC)CC(C)C)cc1 (stereo not given)', 'f');

Req: # outcome recorded in this test, key = O=c1c2ccccc2oc2ccc(OCCCCCCN3CCCCCC3)cc12
Resp: f

Req: # outcome recorded in this test, key = OCNCCNc1nc2ccccc2c2[nH]c3ccccc3c12
Resp: f

Req: # outcome recorded in this test, key = CCOc1cc(-c2ccc[nH]2)[nH]c1/C=C1\N=C(C)C(C(=O)OC)=C1C
Resp: t

Req: # outcome recorded in this test, key = O=C(NCCCCCCCNC(=O)OCc1ccc2c(Cl)cc(Cl)c(O)c2n1)OCc1ccc2c(Cl)cc(Cl)c(O)c2n1
Resp: f
